These entries and their values trace back to the supplement of paper PMC12338614.

B1: library; numbered along this chain (parent)
chain: MEVVDPQQLGMFTEGELMSVGMDTFIHRIDSTEVIYQPRRKRAKLIGKYLMGDLLGEGSYGKVKEVLDSETLCRRAVKILKKKKLRRIPNGEANVKKEIQLLRRLRHKNVIQLVDVLYNEEKQKMYMVMEYCVCGMQEMLDSVPEKRFPVCQAHGYFCQLIDGLEYLHSQGIVHKDIKPGNLLLTTGGTLKISDLGVAEALHPFAADDTCRTSQGSPAFQPPEIANGLDTFSGFKVDIWSAGVTLYNITTGLYPFEGDNIYKLFENIGKGSYAIPGDCGPPLSDLLKGMLEYEPAKRFSIRQIRQHSWFRKKHPPAEAPVPIPPSPDTKDRWRSMTVVPYLEDLHGADEDEDLFDIEDDIIYTQDFTVPGQVPEEEASHNGQRRGLPKAVCMNGTEAAQLSTKSRAEGRAPNPARKACSASSKIRRLSACKQQ

variants of: B1; test: STK11 functional score (HeLa growth suppression), rescaled enrichment; synonymous median = 1, nonsense median = 0 (normalised score); conditions: with HeLa; variant type: missense
Decision: STK11 functional score compared against 1; not below it gives fulfilled, below it gives not fulfilled.

mutation descriptor	group
E342C	fulfilled
M18T	fulfilled
I161G	not fulfilled
P314Q	fulfilled
A316P	not fulfilled

Inquiry: Could you please find out whether `E396D` has STK11 functional score that meets 1 or exceeds it?
Reply text: fulfilled

Inquiry: API: above_or_equal(metric=STK11 functional score, cutoff=1) for item `W332P`
Reply text: fulfilled

Inquiry: I'd appreciate it if you could say whether `P222L` has STK11 functional score at least equal to 1.
Reply text: not fulfilled

Inquiry: Determine whether this variant has STK11 functional score no lower than 1: `D162R`
Reply text: fulfilled
